- Test system: patient derived organoids
- assay-overview: Calculated IC50 of various agents on organoids derived from the chemoresistant patient (PD3D cell culture)
- Type: cell-based, human
- settings: organoids of the chemoresistant stage IV patient
readout-kind: IC50 (µM)

[[record]]
molecule = "N.N.[Cl][Pt][Cl] [Cisplatin]"
readout_kind = "IC50"
reported_value = 5.05


---

We begin with a simple list: items and their reported % Cell Death.
- Test system: patient derived organoids
- Type: cell-based, human
- settings: % of cells that died compared to control; organoids of the chemoresistant patient
readout-kind: % Cell Death (%)

[[record]]
compound = "O=C1c2c(O)ccc(O)c2C(=O)c2c(NCCNCCO)ccc(NCCNCCO)c21"
readout_kind = "% Cell Death"
reported_value = 50

[[record]]
compound = "CO[C@H]1C(=O)[C@]2(C)[C@@H](OC)C[C@H]3OC[C@@]3(OC(C)=O)[C@H]2[C@H](OC(=O)c2ccccc2)[C@]2(O)C[C@H](OC(=O)[C@H](O)[C@@H](NC(=O)OC(C)(C)C)c3ccccc3)C(C)=C1C2(C)C"
readout_kind = "% Cell Death"
reported_value = 37

[[record]]
compound = "O=P1(N(CCCl)CCCl)NCCCO1 (stereo not shown) [Cyclosphosphamide]"
readout_kind = "% Cell Death"
reported_value = 32

[[record]]
compound = "CCc1c2c(nc3ccc(OC(=O)N4CCC(N5CCCCC5)CC4)cc13)-c1cc3c(c(=O)n1C2)COC(=O)[C@]3(O)CC"
readout_kind = "% Cell Death"
reported_value = 51

[[record]]
compound = "CCCCCOC(=O)Nc1nc(=O)n([C@@H]2O[C@H](C)[C@@H](O)[C@H]2O)cc1F"
readout_kind = "% Cell Death"
reported_value = 61

[[record]]
compound = "Cn1nnc2c(C(N)=O)ncn2c1=O [Temozolomide]"
readout_kind = "% Cell Death"
reported_value = 40


---

- Tested on: patient derived organoids
- Assay type: cell-based, human
- settings: % of cells that died compared to control; organoids of the chemoresistant patient
We begin with a simple list: items and their reported % Cell Death.
readout-kind: % Cell Death (%)

[[record]]
molecule = "N[C@@H](Cc1ccc(N(CCCl)CCCl)cc1)C(=O)O"
reported_value = 40

[[record]]
molecule = "N.N.[Cl][Pt][Cl] [Cisplatin]"
reported_value = 36

[[record]]
molecule = "CC[C@]1(O)C[C@@H]2CN(CCc3c([nH]c4ccccc34)[C@@](C(=O)OC)(c3cc4c(cc3OC)N(C)[C@H]3[C@@](O)(C(=O)OC)[C@H](OC(C)=O)[C@]5(CC)C=CCN6CC[C@]43[C@@H]65)C2)C1"
reported_value = 38

[[record]]
molecule = "COc1cc2c(cc1O)CCN[C@]21CS[C@@H]2c3c(OC(C)=O)c(C)c4c(c3[C@H](COC1=O)N1[C@@H]2[C@H]2c3c(cc(C)c(OC)c3O)C[C@@H]([C@@H]1O)N2C)OCO4"
reported_value = 32

[[record]]
molecule = "CN(C)/N=N/c1[nH]cnc1C(N)=O"
reported_value = 32

[[record]]
molecule = "CCC1=C[C@@H]2CN(C1)Cc1c([nH]c3ccccc13)[C@@](C(=O)OC)(c1cc3c(cc1OC)N(C)[C@H]1[C@@](O)(C(=O)OC)[C@H](OC(C)=O)[C@]4(CC)C=CCN5CC[C@]31[C@@H]54)C2"
reported_value = 45

[[record]]
molecule = "COc1cc([C@@H]2c3cc4c(cc3[C@@H](O[C@@H]3O[C@@H]5CO[C@@H](C)O[C@H]5[C@H](O)[C@H]3O)[C@H]3COC(=O)[C@H]23)OCO4)cc(OC)c1O [Etoposide]"
reported_value = 33

[[record]]
molecule = "CC(=O)O[C@H]1C(=O)[C@@]2(C)[C@H]([C@H](OC(=O)c3ccccc3)[C@]3(O)C[C@H](OC(=O)[C@H](O)[C@@H](NC(=O)c4ccccc4)c4ccccc4)C(C)=C1C3(C)C)[C@]1(OC(C)=O)CO[C@@H]1C[C@@H]2O"
reported_value = 39

[[record]]
molecule = "Nc1ccn([C@@H]2O[C@H](CO)[C@@H](O)C2(F)F)c(=O)n1"
reported_value = 56

[[record]]
molecule = "COc1cccc2c1C(=O)c1c(O)c3c(c(O)c1C2=O)C[C@@](O)(C(=O)CO)C[C@@H]3O[C@H]1C[C@H](N)[C@H](O)[C@H](C)O1"
reported_value = 39

[[record]]
molecule = "N.N.O=C([O-])C1(C(=O)[O-])CCC1.[Pt+2]"
reported_value = 30

